system_tested: MAPK3 (human) (UniProt P27361)
Sequence (P27361 whole entry, looked up): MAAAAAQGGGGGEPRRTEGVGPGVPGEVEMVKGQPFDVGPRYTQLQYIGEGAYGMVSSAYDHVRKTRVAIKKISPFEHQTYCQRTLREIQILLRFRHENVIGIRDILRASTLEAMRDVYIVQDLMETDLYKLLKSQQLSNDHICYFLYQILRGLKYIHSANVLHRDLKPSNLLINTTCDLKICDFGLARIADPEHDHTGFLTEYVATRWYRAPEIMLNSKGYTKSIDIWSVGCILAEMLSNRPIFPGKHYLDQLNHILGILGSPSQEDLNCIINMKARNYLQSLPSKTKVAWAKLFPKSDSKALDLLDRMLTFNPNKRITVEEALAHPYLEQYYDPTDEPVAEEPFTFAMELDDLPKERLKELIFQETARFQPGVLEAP
experimental_protocol: KINOMEscan competition binding
run_parameters: compound 10.0 µM
Each entry below carries its recorded kinase still bound, per cent of control.
quantity: kinase still bound, per cent of control (%)

mol_smiles	quantity	value_observed
CN1C(=O)c2ccccc2N(C)c2nc(Nc3ccc(N4CCC(O)CC4)cc3)ncc21	kinase still bound, per cent of control	100
O=C1NC(=O)/C(=C/c2c[nH]c(=O)c(-c3ccc(N4CCNCC4)nc3)c2)S1	kinase still bound, per cent of control	94
CN1C(=O)c2ccccc2N(C)c2nc(NS(=O)(=O)c3ccc(N)cc3)ncc21	kinase still bound, per cent of control	100
COc1cc(N2CCC(O)CC2)ccc1Nc1ncc2c(n1)N1CCc3cccc(c31)C(=O)N2C	kinase still bound, per cent of control	99
COc1cc(N2CCN(C)CC2)ccc1Nc1ncc2c(n1)N(C)c1sccc1C(=O)N2C	kinase still bound, per cent of control	95
COc1cc(N2CCN(C)CC2)ccc1Nc1ncc2c(n1)Nc1ccccc1NC2=O	kinase still bound, per cent of control	93
COc1cc(N2CCN(C)CC2)ccc1Nc1ncc2c(n1)N(C)c1ccccc1N(C)C2=O	kinase still bound, per cent of control	100
CN1CCN(c2ccc(C(=O)Nc3ncc4c(n3)N(C)c3ccccc3C(=O)N4C)cc2)CC1	kinase still bound, per cent of control	100

* * *

Each entry below carries its recorded kinase still bound, per cent of control.
system_tested: RPS6KA1 KD2 (human) (UniProt Q15418)
Sequence (Q15418 whole entry, looked up): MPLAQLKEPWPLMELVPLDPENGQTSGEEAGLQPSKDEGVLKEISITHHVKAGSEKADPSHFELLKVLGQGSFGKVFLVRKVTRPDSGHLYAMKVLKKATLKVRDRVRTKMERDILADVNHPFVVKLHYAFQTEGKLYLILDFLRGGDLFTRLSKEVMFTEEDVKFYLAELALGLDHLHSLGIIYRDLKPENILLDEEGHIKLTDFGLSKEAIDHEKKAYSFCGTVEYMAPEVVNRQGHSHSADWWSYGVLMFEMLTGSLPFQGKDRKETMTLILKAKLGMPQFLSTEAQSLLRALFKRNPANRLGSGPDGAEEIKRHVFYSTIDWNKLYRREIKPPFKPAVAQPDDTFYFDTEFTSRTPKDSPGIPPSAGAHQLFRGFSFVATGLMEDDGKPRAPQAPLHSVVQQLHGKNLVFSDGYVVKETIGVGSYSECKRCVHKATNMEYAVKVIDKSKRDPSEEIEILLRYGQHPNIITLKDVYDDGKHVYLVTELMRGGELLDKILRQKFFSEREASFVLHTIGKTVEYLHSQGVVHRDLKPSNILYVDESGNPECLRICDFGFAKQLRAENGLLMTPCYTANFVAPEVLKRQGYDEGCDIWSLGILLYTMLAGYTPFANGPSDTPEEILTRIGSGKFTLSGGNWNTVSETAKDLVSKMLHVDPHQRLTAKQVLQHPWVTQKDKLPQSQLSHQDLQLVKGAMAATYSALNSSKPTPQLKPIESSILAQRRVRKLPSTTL
experimental_protocol: KINOMEscan competition binding
run_parameters: compound 10.0 µM
quantity: kinase still bound, per cent of control (%)

molecule	quantity	uom	value_observed
O=C1NC(=O)/C(=C/c2ccc(-c3ccc4c(C(=O)Nc5cccc(C(F)(F)F)c5)cccc4c3)o2)S1	kinase still bound, per cent of control	%	23
COc1cc(N2CCC(O)CC2)ccc1Nc1ncc2c(n1)N1CCc3cccc(c31)C(=O)N2C	kinase still bound, per cent of control	%	8
COc1cc(N2CCN(CCO)CC2)ccc1Nc1ncc2c(n1)N(C1CCCC1)CCC(=O)N2C	kinase still bound, per cent of control	%	32
CSC1=NC(=O)/C(=C/c2ccc(-c3ccc(S(N)(=O)=O)cc3)o2)S1	kinase still bound, per cent of control	%	12
COc1cc(C(=O)NC2CCN(C)CC2)ccc1Nc1ncc2c(n1)N(C1CCC(O)CC1)CCC(=O)N2C (centres undefined)	kinase still bound, per cent of control	%	15
NS(=O)(=O)c1ccc(-c2ccc(/C=C3\SC(=S)N(CC(=O)O)C3=O)o2)cc1	kinase still bound, per cent of control	%	29
CN1CCN(c2ccc(C(=O)Nc3ncc4c(n3)N(C)c3ccccc3C(=O)N4C)cc2)CC1	kinase still bound, per cent of control	%	94
COc1cc(N2CCN(C)CC2)ccc1Nc1ncc2c(n1)N1CCC[C@H]1CC(=O)N2C	kinase still bound, per cent of control	%	28
CN1C(=O)[C@H]2CCC[C@H]2N(C2CCCC2)c2nc(Nc3ccc(C(N)=O)cc3)ncc21	kinase still bound, per cent of control	%	7.6
O=C1NC(=O)/C(=C/c2c[nH]c(=O)c(-c3ccc(N4CCNCC4)nc3)c2)S1	kinase still bound, per cent of control	%	34
COc1cc(N2CCN(C)CC2)ccc1Nc1ncc2c(n1)N(c1ccccc1)CCC(=O)N2	kinase still bound, per cent of control	%	33
CCOc1cc(N2CCC(O)CC2)ccc1Nc1ncc2c(n1)N(C)c1ccccc1C(=O)N2C	kinase still bound, per cent of control	%	28
N=C1NC(=O)/C(=C/c2ccc(-c3cncc4ccccc34)o2)S1	kinase still bound, per cent of control	%	11
COc1cc(C(=O)NC2CCN(C)CC2)ccc1Nc1ncc2c(n1)N(CCc1ccccc1)CCC(=O)N2C	kinase still bound, per cent of control	%	32
O=C1NC(=S)S/C1=C\c1ccc(-c2cncc3ccccc23)o1	kinase still bound, per cent of control	%	2.6
COc1cc(N2CCN(C)CC2)ccc1Nc1ncc2c(n1)N(C)c1sccc1C(=O)N2C	kinase still bound, per cent of control	%	24
COc1cc(C(=O)NC2CCN(C)CC2)ccc1Nc1ncc2c(n1)N(C1CCCC1)C(C)CC(=O)N2C (centres undefined)	kinase still bound, per cent of control	%	22
N=C1NC(=O)/C(=C/c2ccc(-c3ccc(C(=O)Nc4ccc(N5CCNCC5)cc4)cc3O)o2)S1	kinase still bound, per cent of control	%	21
CN1C(=O)c2ccccc2N(C)c2nc(Nc3ccc(N4CCC(O)CC4)cn3)ncc21	kinase still bound, per cent of control	%	34

* * *

system_tested: CSNK1G2 (human) (UniProt P78368)
Sequence (P78368 whole entry, looked up): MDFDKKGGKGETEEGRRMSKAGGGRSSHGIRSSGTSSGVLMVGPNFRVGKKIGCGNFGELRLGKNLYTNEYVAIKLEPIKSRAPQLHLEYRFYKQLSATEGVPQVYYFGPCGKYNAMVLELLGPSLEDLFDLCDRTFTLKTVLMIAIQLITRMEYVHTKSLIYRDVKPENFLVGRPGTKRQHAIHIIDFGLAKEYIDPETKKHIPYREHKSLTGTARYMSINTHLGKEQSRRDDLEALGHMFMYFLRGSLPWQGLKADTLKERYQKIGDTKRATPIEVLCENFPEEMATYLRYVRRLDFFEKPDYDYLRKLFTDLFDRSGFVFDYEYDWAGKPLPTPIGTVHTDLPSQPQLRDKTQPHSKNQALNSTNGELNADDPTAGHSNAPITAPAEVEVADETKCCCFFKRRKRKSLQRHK
experimental_protocol: KINOMEscan competition binding
run_parameters: compound 10.0 µM

mol_smiles	uom	kinase still bound, per cent of control
O=C1NC(=O)/C(=C/c2c[nH]c(=O)c(-c3ccc(C(=O)Nc4ccc(N5CCNCC5)cc4)cc3)c2)S1	%	24
O=C1NC(=O)/C(=C/c2c[nH]c(=O)c(-c3ccc(N4CCNCC4)nc3)c2)S1	%	3.6
Nc1cccc(-c2cc(/C=C3\SC(=O)NC3=O)c[nH]c2=O)c1	%	19
CN1CCN(c2ccc(C(=O)Nc3ncc4c(n3)N(C)c3ccccc3C(=O)N4C)cc2)CC1	%	100
CN1C(=O)c2ccccc2N(C)c2nc(NS(=O)(=O)c3ccc(N)cc3)ncc21	%	100
COc1cc(N2CCC(O)CC2)ccc1Nc1ncc2c(n1)N1CCc3cccc(c31)C(=O)N2C	%	100
CS(=O)(=O)Nc1ccc(-c2ncc(/C=C3\SC(=N)NC3=O)s2)cc1	%	14
COc1cc(N2CCN(C)CC2)ccc1Nc1ncc2c(n1)N(C)c1sccc1C(=O)N2C	%	87
CN1C(=O)c2ccccc2N(C)c2nc(Nc3ccc(N4CCC(O)CC4)cc3)ncc21	%	80
CS(=O)(=O)Nc1ccc(-c2cncc(/C=C3\SC(=N)NC3=O)c2)cc1	%	0.75
COc1cc(N2CCN(C)CC2)ccc1Nc1ncc2c(n1)Nc1ccccc1NC2=O	%	92
COc1cc(N2CCN(C)CC2)ccc1Nc1ncc2c(n1)N(C)c1ccccc1N(C)C2=O	%	100

* * *

system_tested: CHEK1 (human) (UniProt O14757)
Sequence (O14757 whole entry, looked up): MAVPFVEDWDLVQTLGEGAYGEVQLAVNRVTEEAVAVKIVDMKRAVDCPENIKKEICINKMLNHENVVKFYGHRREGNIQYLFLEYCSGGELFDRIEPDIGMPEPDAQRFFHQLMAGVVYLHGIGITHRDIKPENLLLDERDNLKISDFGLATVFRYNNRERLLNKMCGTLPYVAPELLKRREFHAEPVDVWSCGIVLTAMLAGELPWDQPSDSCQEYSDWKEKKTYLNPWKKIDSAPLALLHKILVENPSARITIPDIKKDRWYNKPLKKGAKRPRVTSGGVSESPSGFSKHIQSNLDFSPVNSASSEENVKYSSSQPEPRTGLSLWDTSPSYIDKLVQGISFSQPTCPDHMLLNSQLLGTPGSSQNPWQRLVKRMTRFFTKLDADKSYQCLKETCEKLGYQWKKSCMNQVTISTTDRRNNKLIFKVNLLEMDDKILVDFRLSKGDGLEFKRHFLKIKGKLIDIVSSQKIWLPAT
experimental_protocol: KINOMEscan competition binding
run_parameters: compound 10.0 µM
Binary call on kinase still bound, per cent of control with cut-off 30%: strictly below means satisfied, and equality or higher means not satisfied.

molecule	discrete_label
N=C1NC(=O)/C(=C/c2c[nH]c(=O)c(-c3ccc(N4CCNCC4)nc3)c2)S1	satisfied
O=C1NC(=O)/C(=C/c2c[nH]c(=O)c(-c3ccc(N4CCNCC4)nc3)c2)S1	satisfied
COc1cc(N2CCN(C)CC2)ccc1Nc1ncc2c(n1)N(C1CCCC1)C(C)CC(=O)N2 (stereo not given)	satisfied
COc1cc(N2CCC(O)CC2)ccc1Nc1ncc2c(n1)N1CCc3cccc(c31)C(=O)N2C	not satisfied
CN1CCN(c2ccc(C(=O)Nc3ncc4c(n3)N(C)c3ccccc3C(=O)N4C)cc2)CC1	not satisfied
COc1cc(N2CCN(C)CC2)ccc1Nc1ncc2c(n1)N(C)c1sccc1C(=O)N2C	not satisfied
COc1cc(N2CCC(N3CCN(C)CC3)CC2)ccc1Nc1ncc2c(n1)N1CCCC1CC(=O)N2C (stereo not given)	satisfied
COc1cc(N2CCN(C)CC2)ccc1Nc1ncc2c(n1)N1CCC[C@H]1CC(=O)N2C	satisfied
COc1cc(N2CCN(C)CC2)ccc1Nc1ncc2c(n1)N(c1ccccc1)CCC(=O)N2	satisfied
CS(=O)(=O)Nc1ccc(-c2cc(/C=C3\SC(=N)NC3=O)c[nH]c2=O)cc1	not satisfied
COc1cc(N2CCN(C)CC2)ccc1Nc1ncc2c(n1)N(C)c1ccccc1N(C)C2=O	not satisfied
COc1cc(N2CCN(C)CC2)ccc1Nc1ncc2c(n1)N1CCC[C@H]1CC(=O)N2	satisfied
CN1C(=O)c2ccccc2N(C)c2nc(NS(=O)(=O)c3ccc(N)cc3)ncc21	not satisfied
COc1cc(N2CCN(C)CC2)ccc1Nc1ncc2c(n1)Nc1ccccc1NC2=O	not satisfied
CN1C(=O)c2ccccc2N(C)c2nc(Nc3ccc(N4CCC(O)CC4)cc3)ncc21	not satisfied

* * *

Tested on: KIT (human), P10721 [V559D/V654A]
Sequence (P10721 whole entry V559D/V654A, looked up): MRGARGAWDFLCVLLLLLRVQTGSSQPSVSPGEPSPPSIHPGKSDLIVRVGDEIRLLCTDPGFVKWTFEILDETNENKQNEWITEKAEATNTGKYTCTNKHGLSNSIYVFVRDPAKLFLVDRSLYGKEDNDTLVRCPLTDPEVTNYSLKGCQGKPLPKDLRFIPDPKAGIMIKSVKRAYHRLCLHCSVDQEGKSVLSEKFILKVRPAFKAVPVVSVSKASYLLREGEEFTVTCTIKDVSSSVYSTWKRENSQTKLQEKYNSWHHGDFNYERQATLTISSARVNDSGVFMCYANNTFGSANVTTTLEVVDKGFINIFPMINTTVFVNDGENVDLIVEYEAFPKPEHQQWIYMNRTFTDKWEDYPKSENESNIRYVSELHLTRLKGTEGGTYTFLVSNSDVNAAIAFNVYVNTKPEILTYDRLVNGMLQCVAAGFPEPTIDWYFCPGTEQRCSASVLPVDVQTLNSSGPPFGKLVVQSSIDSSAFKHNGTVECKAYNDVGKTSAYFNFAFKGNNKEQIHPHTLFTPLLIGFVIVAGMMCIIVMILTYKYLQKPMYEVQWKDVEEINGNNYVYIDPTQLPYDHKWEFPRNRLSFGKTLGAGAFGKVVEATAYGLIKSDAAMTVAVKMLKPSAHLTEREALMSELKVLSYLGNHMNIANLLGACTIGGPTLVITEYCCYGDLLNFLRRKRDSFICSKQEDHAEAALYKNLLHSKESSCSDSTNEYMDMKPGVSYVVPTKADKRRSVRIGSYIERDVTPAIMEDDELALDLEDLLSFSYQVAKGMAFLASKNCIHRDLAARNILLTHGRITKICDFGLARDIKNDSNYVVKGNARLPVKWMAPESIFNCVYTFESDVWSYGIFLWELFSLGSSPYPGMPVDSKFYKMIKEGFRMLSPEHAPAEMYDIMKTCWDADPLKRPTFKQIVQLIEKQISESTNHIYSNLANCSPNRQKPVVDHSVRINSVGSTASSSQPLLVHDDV
experimental_protocol: KINOMEscan competition binding
run_parameters: compound 10.0 µM
quantity: kinase still bound, per cent of control

mol_smiles	value_observed
CN1C(=O)c2ccccc2N(C)c2nc(Nc3ccc(N4CCC(O)CC4)cc3)ncc21	58%
N=C1NC(=O)/C(=C/c2ccc(-c3cncc4ccccc34)o2)S1	23%
N=C1NC(=O)/C(=C/c2ccc(-c3csc4ccccc34)o2)S1	24%
CN1C(=O)c2ccccc2N(C)c2nc(NS(=O)(=O)c3ccc(N)cc3)ncc21	100%
CN1CCN(c2ccc(C(=O)Nc3ncc4c(n3)N(C)c3ccccc3C(=O)N4C)cc2)CC1	100%

* * *

system_tested: DCLK2 (human)
experimental_protocol: KINOMEscan competition binding
run_parameters: compound 10.0 µM
Range-based classes on measured kinase still bound, per cent of control: Low (below 0.7%), Medium (0.7% to below 20%), High (20% or more)

compound	discrete_label
COc1cc(N2CCN(C)CC2)ccc1Nc1ncc2c(n1)N(C)c1sccc1C(=O)N2C	Medium
COc1cc(C(=O)NC2CCN(C)CC2)ccc1Nc1ncc2c(n1)N(C1CCCC1)CC(C)C(=O)N2C (centres undefined)	Medium
COc1cc(C(=O)NC2CCN(C)CC2)ccc1Nc1ncc2c(n1)N(C1CCC(O)CC1)CCC(=O)N2C (centres undefined)	High
COc1cc(N2CCC(O)CC2)ccc1Nc1ncc2c(n1)N1CCc3cccc(c31)C(=O)N2C	Low
COc1cc(N2CCN(C)CC2)ccc1Nc1ncc2c(n1)N(C(C)C)c1ccccc1C(=O)N2	Medium
CCOc1cc(N2CCC(O)CC2)ccc1Nc1ncc2c(n1)N(C)c1ccccc1C(=O)N2C	Low
CN1C(=O)c2ccccc2N(C)c2nc(NS(=O)(=O)c3ccc(N)cc3)ncc21	High
COc1cc(N2CCC(N3CCN(C)CC3)CC2)ccc1Nc1ncc2c(n1)N1CCCC1CC(=O)N2C (centres undefined)	High
CN1C(=O)c2ccccc2N(C)c2nc(Nc3ccc(N4CCC(O)CC4)cn3)ncc21	Low

Value source: the kinase profiling compilation of Christmann-Franck et al. (2016)
